target: cGMP-specific 3',5'-cyclic phosphodiesterase (Homo sapiens)
pIC50: −log10 of the molar value.
readout: pIC50

{"structure smiles": "CCCOc1ccccc1-c1nc2c(ncn2CCC)c(=O)[nH]1", "endpoint value": 8.00}
{"structure smiles": "CCCc1nc(C)c2c(=O)[nH]c(-c3ccccc3OCC)nn12", "endpoint value": 8.30}

###

IC50 values, listed per item
target: Phosphodiesterase 3 (Homo sapiens, UniProt Q14432+Q13370); assay: Inhibition of Phosphodiesterase 3; type: protein assay
readout: IC50

{"structure smiles": "CCCc1nc(C)c2c(=O)[nH]c(-c3ccccc3OCC)nn12", "readout": "IC50", "endpoint value": "> 0.5 µM"}
{"structure smiles": "CCCc1nc(C)c2c(=O)[nH]c(-c3cc(S(=O)(=O)N4CCN(C)CC4)ccc3OCC)nn12", "readout": "IC50", "endpoint value": "> 0.5 µM"}
{"structure smiles": "CCCOc1ccccc1-c1nc2c(ncn2CCC)c(=O)[nH]1", "readout": "IC50", "endpoint value": "> 0.5 µM"}
{"structure smiles": "CCCOc1ccc(S(=O)(=O)N2CCN(C)CC2)cc1-c1nc2c(ncn2CCC)c(=O)[nH]1", "readout": "IC50", "endpoint value": "> 0.5 µM"}
{"structure smiles": "CCCc1nn(C)c2c(=O)[nH]c(-c3ccccc3OCC)nc12", "readout": "IC50", "endpoint value": "> 0.5 µM"}

src = ChEMBL document CHEMBL1135239
